Test: Cell viability assay (resazurin), BJhTERT non-transformed control
Format: cell-based
Conditions: human, BJhTERT immortalized fibroblast cells, BJhTERT, Log conc. (M) 1.23027e-6; read-out: cell viability, cytotoxicity curve (Figure3H)
Protocol: A2780, HCT116, and HEK293T cell lines were authenticated with STR profiling, frozen down, and these stocks were used in experiments. […] All media were supplemented with 10% FBS and 1% P/S. All cell culture media, additives, and reagents were purchased from Thermo Fisher Scientific. […] The cell viability was calculated compared to untreated control wells and the EC50 values were determined in XLfit (IDBS).
EXPERIMENTAL READOUT: viability at 72 h, 1.23027e-06 M (%)
Numbers only; they are read as %.

## Task For the molecule shown here, O=C(Nc1ccc(I)cc1)N1CCC(n2c(=O)[nH]c3c(Br)cccc32)CC1 [TH5487, reference compound] , give the reported viability at 72 h, 1.23027e-06 M.
## Result 81.8

----------
target: NEIL1 (Homo sapiens, UniProt Q96FI4)
Sequence (Q96FI4 whole entry, species assumed): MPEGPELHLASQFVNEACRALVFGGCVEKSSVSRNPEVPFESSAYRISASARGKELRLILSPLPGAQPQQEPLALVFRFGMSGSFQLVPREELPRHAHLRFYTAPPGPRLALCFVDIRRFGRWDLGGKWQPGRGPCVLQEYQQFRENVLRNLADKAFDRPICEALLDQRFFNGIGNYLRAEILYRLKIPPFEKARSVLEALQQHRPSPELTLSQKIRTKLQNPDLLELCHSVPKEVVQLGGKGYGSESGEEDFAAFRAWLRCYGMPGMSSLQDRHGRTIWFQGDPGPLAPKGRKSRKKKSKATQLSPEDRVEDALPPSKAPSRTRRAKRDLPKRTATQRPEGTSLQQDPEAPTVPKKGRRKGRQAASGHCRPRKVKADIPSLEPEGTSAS
EXPERIMENTAL READOUT: IC50

## Task // query IC50 value for entry `Cc1nc(-c2ccc(CC(=O)Nc3noc4c3CCCC4)cc2)c(C)[nH]1`
## Result > 99 µM

----------
assay: Cell viability assay (resazurin), BJhTERT non-transformed control; format: cell-based; conditions: human, BJhTERT, Log conc. (M) 1.12202e-5; read-out: cell viability, cytotoxicity curve (Figure3H)
EXPERIMENTAL READOUT: viability at 72 h, 1.12202e-05 M (%)
Give the number; % is assumed, so skip it.

## Task Look up viability at 72 h, 1.12202e-05 M for this compound: Nc1nn(-c2ccc(CC(=O)Nc3noc4c3CCCC4)cc2)c2ccccc12 [compound 11]
## Result 89.3

----------
assay: Thermodynamic solubility; format: physicochemical; conditions: thermodynamic from solid
EXPERIMENTAL READOUT: solubility thermodynamic (µM)
Please reply with the bare figure in µM and do not write the unit itself.

## Task Consider the compound shown here: `Cc1nc(-c2ccc(CC(=O)Nc3noc4c3CCCC4)cc2)c(C)[nH]1` What is its recorded solubility thermodynamic?
## Result 667

----------
assay: Cell viability assay (resazurin), BJhTERT non-transformed control; assay type: cell-based; conditions: human, BJhTERT immortalized fibroblast cells, BJhTERT, Log conc. (M) 4.57088e-8; read-out: cell viability, cytotoxicity curve (Figure3H)
EXPERIMENTAL READOUT: viability at 72 h, 4.57088e-08 M (%)
Give your result in % as a bare value.

## Task Could you share which viability at 72 h, 4.57088e-08 M value was measured for O=C(Nc1ccc(I)cc1)N1CCC(n2c(=O)[nH]c3c(Br)cccc32)CC1 [TH5487, reference compound] ?
## Result 84

----------
Each entry below lists one item and its recorded ∆Tm (K) value.
molecular target: human OGG1 enzyme (Homo sapiens, UniProt O15527); test: Differential scanning fluorimetry (DSF) thermal shift assay; type: binding; conditions: 99 μM
Sequence (O15527 whole entry): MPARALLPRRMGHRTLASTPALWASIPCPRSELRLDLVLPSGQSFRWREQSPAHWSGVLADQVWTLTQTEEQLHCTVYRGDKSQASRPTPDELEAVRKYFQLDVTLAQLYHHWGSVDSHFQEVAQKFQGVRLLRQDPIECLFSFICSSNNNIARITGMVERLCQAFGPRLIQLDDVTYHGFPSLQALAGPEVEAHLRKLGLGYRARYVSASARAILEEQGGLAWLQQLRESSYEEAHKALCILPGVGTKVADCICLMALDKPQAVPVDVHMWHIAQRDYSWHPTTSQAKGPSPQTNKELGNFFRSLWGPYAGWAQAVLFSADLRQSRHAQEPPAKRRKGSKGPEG
// units = K; emit number, no label

Worked cases, answers included:
| COMPOUND | EXPERIMENTAL TARGET | UNIT NAME | VAL |
| --- | --- | --- | --- |
| Cc1ccc(NC(=O)N2CC(O)(c3ccc(Cl)cc3)C2)s1 [ZINC000633809751] | human OGG1 enzyme (Homo sapiens, UniProt O15527) | K | 0.48 |
| COc1ccc2[nH]cc(CC(=O)Nc3nnc4cc(C)ccn34)c2c1 | human OGG1 enzyme (Homo sapiens, UniProt O15527) | K | -0.38 |
| O=C(Cc1ccc(-n2nc(Cl)c3ccccc32)cc1)Nc1noc2c1CCCC2 | human OGG1 enzyme (Homo sapiens, UniProt O15527) | K | 2.3 |
| Cn1nc(Nc2ncnc3cc(F)c(F)cc23)cc1C1CC1 | human OGG1 enzyme (Homo sapiens, UniProt O15527) | K | -0.04 |

## Task // returns reported ∆Tm (K) for input `C[C](CNC(=O)c1cn2c(n1)CCC2)Oc1ccc(Cl)cc1`
## Result 0.05
